Target: Recombinant human His-tagged Kat6a protein (amino acids 194-810) (Homo sapiens)
Construct: Kat6a protein (amino acids 194-810); His
Sequence (Q92794 194-810): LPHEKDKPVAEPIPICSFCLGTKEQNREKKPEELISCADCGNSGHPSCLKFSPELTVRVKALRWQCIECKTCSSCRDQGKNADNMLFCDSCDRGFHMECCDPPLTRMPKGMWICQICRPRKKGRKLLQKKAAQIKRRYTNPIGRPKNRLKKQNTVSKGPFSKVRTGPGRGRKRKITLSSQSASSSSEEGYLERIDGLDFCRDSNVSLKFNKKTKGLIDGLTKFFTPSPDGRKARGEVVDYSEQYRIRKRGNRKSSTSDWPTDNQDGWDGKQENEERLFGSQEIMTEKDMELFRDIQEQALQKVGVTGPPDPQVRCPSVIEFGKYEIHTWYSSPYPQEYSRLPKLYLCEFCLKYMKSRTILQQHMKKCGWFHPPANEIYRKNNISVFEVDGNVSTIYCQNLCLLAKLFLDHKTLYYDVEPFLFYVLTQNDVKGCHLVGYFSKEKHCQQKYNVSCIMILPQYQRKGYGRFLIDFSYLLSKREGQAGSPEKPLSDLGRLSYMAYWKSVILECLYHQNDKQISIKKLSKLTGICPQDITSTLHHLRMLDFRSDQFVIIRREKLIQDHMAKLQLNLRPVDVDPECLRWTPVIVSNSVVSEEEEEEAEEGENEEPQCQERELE
Test: Kat6a activity assay (TR-FRET, acetylation of Histone-H4-derived peptide)
Conditions: 60 mins at 22° C., 220 nM H4 peptide, 600 nM Acetyl Coenzyme A, read-out: KAT6A - DPF/HAT domain IC50 [mol/l] (arithmetic mean)
Parameter measured: IC50 (nM)

Check out these entries, answers already filled in.
Molecule	IC50 [nM]
CCSc1nc2ccccn2c1S(=O)(=O)NC(=O)c1cc2c(F)cc(N3CCC3)cc2o1	274
O=C(NS(=O)(=O)c1ccccc1-c1ccccc1)c1cc2ccc(N3CC(F)(F)C3)cc2o1	1100
Cc1cncc2cccc(S(=O)(=O)NC(=O)c3cc4c(F)cc(N5CCC5)cc4o3)c12	4820
CCOc1ccccc1S(=O)(=O)NC(=O)c1cc2c(F)cc(N3CCC3C(C)(C)O)cc2o1 (racemic)	1990

a: CCc1ccc(C)c(S(=O)(=O)NC(=O)c2cc3c(F)cc(N4CCC4)cc3o2)c1
b: CCOc1cccc(C)c1S(=O)(=O)NC(=O)c1cc2c(F)cc(N3CCC3)cc2o1
Lab note: record which item had the higher IC50, a or b . Lab note: record the label of whichever item you select. b

meta.source: patent US20240279207A1
